Each recorded value in this set is attributed to patent US20120164161A1.

- SYSTEM TESTED: T1, human CC chemokine receptor 4 (CCR4) (human, UniProt P51679 1-360)
- T1 construct: whole, on cells; also called human CCR4; CD194
- T1 sequence (looked up): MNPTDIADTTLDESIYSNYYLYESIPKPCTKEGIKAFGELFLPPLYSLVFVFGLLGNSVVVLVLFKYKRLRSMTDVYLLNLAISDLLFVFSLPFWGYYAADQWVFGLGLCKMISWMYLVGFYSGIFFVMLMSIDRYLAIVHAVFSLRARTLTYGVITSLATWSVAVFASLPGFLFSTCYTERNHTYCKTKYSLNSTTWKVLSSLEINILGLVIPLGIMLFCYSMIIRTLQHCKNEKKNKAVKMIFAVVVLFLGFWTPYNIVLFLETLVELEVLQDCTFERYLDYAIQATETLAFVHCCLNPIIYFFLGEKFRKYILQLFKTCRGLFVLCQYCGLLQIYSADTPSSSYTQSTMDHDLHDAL
- ASSAY REMARKS: competition in flow cytometry on CCRF-CEM cells: scFv titrated against 50 nM Alexa647-labelled MDC-SNAP; remaining MDC-SNAP signal (Alexa 647)
MEASURED QUANTITY: IC50 (read off the curve)

406 scFv (scFv, not shown: small tags and cut ends, Expressed in TG1 bacteria) scFv: QVQLVQSGAEVKKPGSSVKVSCKASEGTFSSYAMSWVRQAPGQGLEWMGGIIPIFGTVNYAQKFQGRVTMTRDTSTSTVYMELSSLRSDDTAVYYCARRGGSYFDYWGQGTLVTVSSKLSGSASAPKLEEGEFSEARVSYVLTQPPSASGTPGQSVTISCSGSTSNIGSHYVSWYQQLPGTAPRLLIYRNHQRPSGVPDRLSGSKSGTSASLAISGLRSEDEADYYCAVWDAKYRGWVFGGGTKLTVL	~0.1 nM
501 scFv (scFv, not shown: small tags and cut ends, Expressed in TG1 bacteria; also called scFv 501; antibody 501 (single chain form)) scFv: QVQLVQSGAEVKKPGSSVKVSCKASEGTFSSYAMSWVRQAPGQGLEWMGGIIPIFGTVNYAQKFQGRVTMTRDTSTSTVYMELSSLRSDDTAVYYCARRRGAKFDYWGQGTLVTVSSKLSGSASAPKLEEGEFSEARVSYVLTQQPSASGTPGQSVTISCSGSTSNIGSHYVVWYQQLPGTAPRLLIYRNHQRPSGVPDRLSGSKSGTSASLAIGGLRSEDEADYYCAVWDDTLSGWVFGGGTKLTVL	~0.3 nM

As a next step, examine the binder that follows.
QUERY: Quote IC50 (read off the curve) reported for 503 scFv (scFv, not shown: small tags and cut ends, Expressed in TG1 bacteria) scFv: QVQLVQSGAEVKKPGSSVKVSCKASEGTFSSYAMSWVRQAPGQGLEWMGGIIPIFGTVNYAQKFQGRVTMTRDTSTSTVYMELSSLRSDDTAVYYCARRRGAKFDYWGQGTLVTVSSKLSGSASAPKLEEGEFSEARVSYVLTQPPSASGTPGQSVTISCSGSTSNIGSHYVVWYQQLPGTAPRLLIYRNHQRPSGVPDRLSGSKSGTSASLAIGGLRSEDEADYYCAVWDDTLSGWVFGGGTKLTVL please.
RESULT: ~0.3 nM
